Measured pKd of individual entries
Target: T1, Purified recombinant human CD26 (rhDipeptidyl peptidase IV), R&D Systems CAT #1180-SE (human, UniProt P27487 29-766)
T1 construct: Bought recombinant protein; also called hu-CD26; soluble human CD26
T1 sequence (P27487 29-766 limits assumed): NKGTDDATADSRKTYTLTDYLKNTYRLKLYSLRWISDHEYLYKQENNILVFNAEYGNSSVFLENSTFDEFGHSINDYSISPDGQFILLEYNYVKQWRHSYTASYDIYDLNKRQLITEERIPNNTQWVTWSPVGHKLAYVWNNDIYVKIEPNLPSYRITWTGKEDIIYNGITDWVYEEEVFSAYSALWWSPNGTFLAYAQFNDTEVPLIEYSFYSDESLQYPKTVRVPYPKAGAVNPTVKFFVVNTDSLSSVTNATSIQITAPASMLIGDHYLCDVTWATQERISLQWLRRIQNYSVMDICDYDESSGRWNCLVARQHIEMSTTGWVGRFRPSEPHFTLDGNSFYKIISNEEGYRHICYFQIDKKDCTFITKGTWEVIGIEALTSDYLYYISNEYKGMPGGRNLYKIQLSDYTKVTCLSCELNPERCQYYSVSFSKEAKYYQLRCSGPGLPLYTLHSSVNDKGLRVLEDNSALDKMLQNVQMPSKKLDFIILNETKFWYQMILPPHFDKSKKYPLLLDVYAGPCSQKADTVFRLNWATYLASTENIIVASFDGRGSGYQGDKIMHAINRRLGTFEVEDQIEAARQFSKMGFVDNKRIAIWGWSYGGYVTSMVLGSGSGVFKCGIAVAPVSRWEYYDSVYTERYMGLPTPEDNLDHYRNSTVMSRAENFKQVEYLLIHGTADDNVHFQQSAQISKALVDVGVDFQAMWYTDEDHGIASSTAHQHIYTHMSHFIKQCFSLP
Assay: SPR (Biacore), Fab
pKd: −log10 of the molar value.

binder	pKd
Fab X399 (X399 VH and X380 VL) (Fab, V domains shown, Fab made in E. coli) VH: EVQLVQSGGGVKQPGETLRLTCTASGFSLSTYGVHWVRQAPGKGLEWVGVIWGDGRTDYDAAFMSRVTISKDTSKSTVYLQMNSLRAEDTAVYYCMRNRHDWFDYWGQGTTVTVSS VL: EIEMTQSPSSLSVSAGERATISCSASQDIRNSLNWYQQKPGQAPRLLIYYSSNLHTGVPARFSGSGSGTDFTLTISRLEPEDVAIYYCQQSNKLPLTFGSGTKVEIK	8.55
Fab X394 (X384 VH and X394 VL) (Fab, V domains shown, Fab made in E. coli) VH: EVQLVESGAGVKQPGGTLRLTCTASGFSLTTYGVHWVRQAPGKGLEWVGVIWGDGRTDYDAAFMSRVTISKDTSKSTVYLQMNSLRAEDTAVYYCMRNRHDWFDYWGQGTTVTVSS VL: DILMTQSPSSLSASPGDRVTISCRASQDIRNNLNWYQQKPGQAPRLLIYYSSNLQTGVPARFSGSGSGTDFTLTISRLEPEDFAAYYCQQSIKLPLTFGSGTKVEIK	9.24
Fab X396 (X385 VH and X380 VL) (Fab, V domains shown, Fab made in E. coli) VH: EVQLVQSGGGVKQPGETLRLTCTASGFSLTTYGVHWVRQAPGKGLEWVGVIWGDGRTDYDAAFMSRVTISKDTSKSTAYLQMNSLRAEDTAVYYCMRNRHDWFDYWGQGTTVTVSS VL: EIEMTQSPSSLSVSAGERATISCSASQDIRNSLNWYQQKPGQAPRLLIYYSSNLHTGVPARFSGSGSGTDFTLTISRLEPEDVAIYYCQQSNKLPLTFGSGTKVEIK	8.60
